Can you tell me Potency (cAMP, transient hRXFP1 in HEK293) for the items I'm about to list?
Biological target: T1, human RXFP1 (human, UniProt Q9HBX9 1-757)
T1 sequence (looked up): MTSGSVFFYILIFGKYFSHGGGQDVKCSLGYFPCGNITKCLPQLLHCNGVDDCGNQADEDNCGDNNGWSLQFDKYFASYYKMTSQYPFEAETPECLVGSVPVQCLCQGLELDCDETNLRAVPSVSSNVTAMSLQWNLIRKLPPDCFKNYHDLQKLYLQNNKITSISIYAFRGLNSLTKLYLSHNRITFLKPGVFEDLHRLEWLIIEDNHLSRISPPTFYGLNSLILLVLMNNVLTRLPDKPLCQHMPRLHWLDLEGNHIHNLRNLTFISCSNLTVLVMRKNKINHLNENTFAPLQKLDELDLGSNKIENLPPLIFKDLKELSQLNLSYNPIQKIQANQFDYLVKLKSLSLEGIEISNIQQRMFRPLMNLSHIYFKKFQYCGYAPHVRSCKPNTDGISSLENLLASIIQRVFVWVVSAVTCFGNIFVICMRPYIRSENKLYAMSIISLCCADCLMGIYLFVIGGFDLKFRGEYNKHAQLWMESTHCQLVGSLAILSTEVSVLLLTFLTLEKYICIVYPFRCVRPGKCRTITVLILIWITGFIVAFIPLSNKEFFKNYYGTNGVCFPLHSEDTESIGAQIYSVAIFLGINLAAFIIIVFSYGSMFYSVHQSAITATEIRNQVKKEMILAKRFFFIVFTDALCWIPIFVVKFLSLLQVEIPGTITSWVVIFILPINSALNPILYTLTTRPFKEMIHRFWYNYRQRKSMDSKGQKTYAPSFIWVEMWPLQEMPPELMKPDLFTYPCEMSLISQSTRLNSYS
Assay: cell-based or functional assay
Could you give the number and then its unit, please?

BINDER	DATA VALUE
SEQ ID NO: 89 (Fc fusion) DKTHTCPPCPAPEAAGGPSVFLFPPKPKDTLMISRTPEVTCVVVDVSHEDPEVKFNWYVDGVEVHNAKTKPREEQYNSTYRVVSVLTVLHQDWLNGKEYKCKVSNKALAAPIEKTISKAKGQPREPQVYTLPPSRDELTKNQVSLTCLVKGFYPSDIAVEWESNGQPENNYKTTPPVLDSDGSFFLYSKLTVDKSRWQQGNVFSCSVLHEALHSHYTQKSLSLSPGKGGSDSWQEEVIKLCGRELVRAQIAICGKSTASDAAGADAQAGARQLYSALANKCCHVGCTKRSLAQFC	2.5 nM

Now look at this entry.
Please give measured Potency (cAMP, transient hRXFP1 in HEK293) of the following entry: SEQ ID NO: 84 (Fc fusion) DKTHTCPPCPAPEAAGGPSVFLFPPKPKDTLMISRTPEVTCVVVDVSHEDPEVKFNWYVDGVEVHNAKTKPREEQYNSTYRVVSVLTVLHQDWLNGKEYKCKVSNKALAAPIEKTISKAKGQPREPQVYTLPPSRDELTKNQVSLTCLVKGFYPSDIAVEWESNGQPENNYKTTPPVLDSDGSFFLYSKLTVDKSRWQQGNVFSCSVLHEALHSHYTQKSLSLSPGKGGSDSWQEEVIKLCGRELVRAQIAICGKSTASDAAGADANAGARQLYSALANKCCHVGCTKRSLAQFC
1.9 nM
